Target: NADPH oxidase 2 (Homo sapiens) (UniProt P04839)
Sequence (P04839 whole entry, looked up): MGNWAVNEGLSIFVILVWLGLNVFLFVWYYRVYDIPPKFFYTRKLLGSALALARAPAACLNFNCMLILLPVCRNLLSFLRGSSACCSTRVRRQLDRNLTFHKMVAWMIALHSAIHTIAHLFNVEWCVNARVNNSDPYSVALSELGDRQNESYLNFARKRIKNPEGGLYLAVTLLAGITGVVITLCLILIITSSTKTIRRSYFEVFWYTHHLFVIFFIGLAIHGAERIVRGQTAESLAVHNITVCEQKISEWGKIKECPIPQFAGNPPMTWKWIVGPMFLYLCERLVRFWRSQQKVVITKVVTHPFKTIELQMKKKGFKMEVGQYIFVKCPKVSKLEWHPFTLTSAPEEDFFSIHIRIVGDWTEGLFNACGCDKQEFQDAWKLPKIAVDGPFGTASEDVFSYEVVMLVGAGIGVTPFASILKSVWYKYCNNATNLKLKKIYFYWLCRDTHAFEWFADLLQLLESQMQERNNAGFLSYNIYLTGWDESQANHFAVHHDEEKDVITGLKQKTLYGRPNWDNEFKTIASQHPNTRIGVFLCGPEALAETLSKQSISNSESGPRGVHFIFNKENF
Assay: NOX2-dependent H2O2 signal modulators, primary screen, NOX inhibitor project, cell-based, HEK293-NOX2, PMA-stimulated, Amplex Red fluorescence (AID 1159); further: test concentration not given here
Conditions: 45 min, higher = more signal, called active from +8 up or from −8 down
Can you tell me z-score for the items I'm about to list?
Output: the number by itself.

## Task # input compound: C=CCN1C(=O)[C@@]2(O[C@@H](CCO)[C@H]([Si](C)(C)c3ccc(OC)cc3)[C@H]2C)c2cc(N3C(=O)c4ccccc4Oc4ccccc43)ccc21 ; wanted: its z-score
## Result -0.946

## Task Then this compound: C=C(C(=O)CC[C@H](OC(C)=O)c1cccc(OCCO)c1)C(C)C
## Result -1.48

## Task Input [N-]=[N+]=Nc1ccccc1C[C@]1(C(=O)NCc2ccccc2)N=C(c2ccc(OCCCO)cc2)O[C@H]1c1ccccc1
## Result -0.172

## Task And then CN1C(=O)C2C=CC(C(O)Cc3ccccc3)N(N(c3ccccc3)c3ccccc3)C2C1=O (stereo not given) , what is it?
## Result -0.0622

## Task Another compound to check: C=CCC(OC(C)=O)[C@@H]1[C@@H](N(Cc2cc3ccccc3o2)C(=O)c2ccc(C)cc2)c2cc(OCCCO)ccc2N1C(=O)Cc1ccc2ccccc2c1 (stereo not given in full)
## Result 0.597

## Task Subsequent entry: CC(C)C[C@@H]1NC(=O)[C@H]2C[C@@H](C(=O)NCCCCCC[N+](C)(C)C)[C@@H](c3cccc(OCCO)c3)N2C1=O
## Result 1.67

## Task Okay, and COC(=O)C[C@H]1O[C@]2(C(=O)N(C)c3ccccc32)[C@@H](C)[C@@H]1[Si](C)(C)c1ccc(C)cc1 ?
## Result 0.626

## Task Now consider COc1ccc([Si](C)(C)[C@@H]2[C@@H](CC(=O)N3CCC[C@H]3CO)O[C@]3(C(=O)N(Cc4ccc(N5C(=O)c6cccc7cccc5c67)cc4)c4ccccc43)[C@H]2C)cc1 .
## Result 3.1

## Task Now the same for CC(C)N1CC=CC23O[C@@H]4C=CCOC(=O)[C@@H]4[C@H]2C(=O)N(C(C)CO)[C@@H]3C1=O (stereo not given in full)
## Result 0.67

## Task Now try Cc1ccc(S[C@]2(C(=O)NCc3ccccc3)CC(=O)N(C(C)C)[C@@H]2c2ccc(CO)cc2I)cc1 .
## Result 2.05

## Task Lookup C[C@]1(C(=O)O)c2ccccc2C(=O)N(Cc2ccccc2)[C@H]1c1ccc(CO)cc1
## Result 0.67

## Task What about this compound? C=CCN1C(=O)[C@@]2(CCC(=O)OC(C)(C)C)N=C(c3ccc(OCCCO)cc3)O[C@H]2c2ccccc21
## Result -2.82

## Task // query: CC=CC(O)C1C=CC2C(=O)N(C)C(=O)C2N1N1CCCCC1 (stereo not given)
## Result -0.605

## Task Thanks! And COCCOC(=O)N1C(=O)[C@@]2(c3ccccc31)[C@H](c1ccc(OCCO)cc1)N1[C@H](c3ccccc3)[C@H](c3ccccc3)OC(=O)[C@H]1[C@@H]2C(=O)Nc1nc2ccccc2s1 ?
## Result 1.13

## Task What do you get for C=C(C(=O)CC[C@H](OC(=O)c1cccnc1)c1cccc(OCCO)c1)C(C)C ?
## Result 0.657

---

Assay: binders of probe aFST on microarray, primary screen, stem cell growth factor project, biochemical, small-molecule microarray, fluorescence 635/667 (AID 1086);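 further: score merges 667 nm fluorescence with signal-to-noise of each printed compound spot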
Details: higher = more signal
If the reported composite z-score equals or exceeds 0.09, assign label 1. If not, assign label 0.

## Task Test whether the molecule CC(C)(C)OC(=O)CC[C@]1(C(=O)NCCN2CCOCC2)N=C(c2ccc(OCCCO)cc2)O[C@H]1c1ccccc1N=[N+]=[N-] records composite z-score of 0.09 or higher.
## Result label 1

## Task // query: O=C(O)[C@H]1C[C@H]2C(=O)N3CCC[C@H]3C(=O)N2[C@H]1c1cccc(OCCO)c1
## Result label 0

## Task Also, CC(C)CCC[C@@H](C)[C@H]1CC[C@@]2(C)C3=C(CC[C@]12C)[C@@]1(C)CC[C@H](OC(=O)c2ccc(Br)cc2)C(C)(C)C1CC3 (some centres not stated) please.
## Result label 1

## Task Also check COCCCNC(=O)[C@@H]1c2ccccc2C(=O)N(Cc2ccccc2C(F)(F)F)[C@H]1c1ccc(CO)cc1
## Result label 0

## Task Okay, and C=CCN1C(=O)[C@@]2(O[C@@H](CCO)[C@H]([Si](C)(C)c3ccc(OC)cc3)[C@H]2C)c2cc(N3C(=O)c4ccccc4Oc4ccccc43)ccc21 ?
## Result label 0

## Task Consider next the molecule COc1ccccc1CN1C(=O)c2ccccc2[C@@H](C(=O)NC(C)C)[C@@H]1c1ccc(CO)cc1 in the same way.
## Result label 1

## Task Then O=C1O[C@@H](c2ccccc2)[C@@H](c2ccccc2)N2[C@@H](c3ccc(O)cc3)[C@]3(C(=O)Nc4ccccc43)[C@@H](C(=O)Nc3nc4ccccc4s3)[C@H]12 ?
## Result label 1

---

Test: binders of probe aFGF2 on microarray, primary screen, stem cell growth factor project, biochemical, small-molecule microarray, fluorescence 635/667 (AID 1067);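 further: measures binding of biotinylated aFGF2 protein to printed compounds on slides; z-score merges feature fluorescence and signal-to-noise across triplicate slides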
Settings: higher = more signal
Value kind: composite z-score
Answer as a number with no unit attached.

## Task Returns the measured composite z-score for the input compound. Input: CCOC(=O)C1=CC[C@@H](c2ccccc2)N(S(=O)(=O)c2ccc(C)cc2)C1
## Result 0.0497

## Task Now the same for CCCCN1CC=CC23O[C@@H]4/C=C\CCC(C)OC(=O)C4[C@H]2C(=O)N(CCCCCCO)[C@@H]3C1=O (stereo not given in full)
## Result -0.0712

## Task Query O=C(O)[C@]1(Cc2ccccc2)N=C(c2ccc(OCCCO)cc2)O[C@@H]1c1ccccc1 next
## Result -0.135

## Task Try COc1c(C)cc(-c2cc3c(c(-c4ccccc4)n2)[Si](C(C)C)(C(C)C)OC3)cc1C next.
## Result -0.241

## Task And what about the compound CCCC[C@@H]1C[C@H]1[C@@H](NC(=O)c1ccccc1)c1ccc(Cl)cc1 ?
## Result -0.196

---

So I've got a bunch of compounds here, and I need their composite z-score values.
Molecular target: Fibroblast growth factor 2 (Homo sapiens)
Assay: FGF2 binders on small-molecule microarrays, primary screen, biochemical, small-molecule microarray, 635/667 nm fluorescence (AID 1133)
Conditions: small-molecule microarray binding, FGF2, fluorescence 635/667; higher = more signal
Response field accepts a number only; no unit should be typed.

## Task // composite z-score lookup, key: COCCCNC(=O)[C@@]1(Sc2ccc(C)cc2)CC(=O)N(Cc2cc(C(F)(F)F)cc(C(F)(F)F)c2)[C@@H]1c1ccc(CO)cc1
## Result 0.686

## Task // repeat for O=C1C[C@]2(c3ccc([N+](=O)[O-])cc3)C(=O)N(Cc3ccccc3)c3cc(CO)ccc3[C@H]2N1CC12CC3CC(CC(C3)C1)C2 and report
## Result -0.653

## Task Now try COc1c(C)cc(-c2cc3c(c(-c4ccccc4)n2)[Si](C(C)C)(C(C)C)OC3)cc1C .
## Result 0.514

## Task Next compound: C[C@@H]1ON(c2ccc(C(=O)OC(C)(C)C)cc2)[C@H](c2ccc(Br)cc2)[C@H]1C(=O)N1C(=O)OC[C@H]1Cc1ccccc1
## Result 0.734

---

Biological target: E3 ubiquitin-protein ligase XIAP (Homo sapiens) (UniProt P98170)
Sequence (P98170 whole entry, looked up): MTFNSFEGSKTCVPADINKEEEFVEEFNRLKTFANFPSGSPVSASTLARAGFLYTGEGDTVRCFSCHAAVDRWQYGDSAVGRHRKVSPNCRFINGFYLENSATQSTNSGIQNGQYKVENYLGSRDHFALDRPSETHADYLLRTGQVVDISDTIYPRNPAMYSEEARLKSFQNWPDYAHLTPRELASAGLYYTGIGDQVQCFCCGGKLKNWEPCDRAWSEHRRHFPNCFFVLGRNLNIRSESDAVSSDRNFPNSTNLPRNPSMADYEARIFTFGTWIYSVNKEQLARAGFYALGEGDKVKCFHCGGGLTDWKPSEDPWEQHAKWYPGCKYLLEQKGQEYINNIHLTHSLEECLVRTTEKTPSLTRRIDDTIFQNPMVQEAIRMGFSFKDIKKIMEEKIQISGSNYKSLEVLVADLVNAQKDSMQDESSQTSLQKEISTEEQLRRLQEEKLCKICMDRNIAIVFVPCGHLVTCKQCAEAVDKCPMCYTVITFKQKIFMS
Test: XIAP binders, primary screen, biophysical, small-molecule microarray, fluorescence 635 nm (AID 1181);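 further: score merges 667 nm emission and signal to noise over triplicate slides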
Details: small-molecule microarray binding, higher = more signal
Cut-off -0.03 on composite z-score, inclusive. At or above means Y; below means N.

## Task Can Cc1ccc(S[C@]2(C(=O)NCc3ccccc3)CC(=O)N(C(C)C)[C@@H]2c2ccc(CO)cc2I)cc1 be said to have composite z-score at or above -0.03?
## Result N

## Task Now the same for C=C(C(=O)CC[C@H](OC(=O)c1cccnc1)c1cccc(OCCO)c1)C(C)C
## Result Y

## Task Lookup CON(C)C(=O)C=C1C[C@@H](c2cccc(Cl)c2)O[C@@H](c2cccc(Cl)c2)O1
## Result N

## Task Next molecule up: COCCOC(=O)N1C(=O)[C@@]2(c3cc(C#Cc4ccc(OC)cc4)ccc31)[C@H](C(=O)N1CCN(c3ncccn3)CC1)[C@H]1C(=O)O[C@H](c3ccccc3)[C@H](c3ccccc3)N1[C@@H]2c1ccccc1OCCO
## Result N

## Task Please do the same for C=CCOC(=O)[C@@H]1[C@H]2C(=O)O[C@H](c3ccccc3)[C@H](c3ccccc3)N2[C@H](c2ccc(OCCOC(=O)[C@H]3C[C@H]4C(=O)N[C@@H](CCCC[N+](C)(C)C)C(=O)N4[C@H]3c3ccc(O)cc3)cc2)[C@@]12C(=O)Nc1ccc(I)cc12 as well.
## Result Y

## Task Query COc1ccc([Si](C)(C)[C@H]2[C@H](CCO)O[C@@]3(C(=O)N(Cc4cccc(N5CCCCC5=O)c4)c4ccccc43)[C@@H]2C)cc1 next
## Result N

## Task Next: O=C1OC[C@@H](c2ccccc2)N2CC(/C=C/c3ccccc3)=CC12 (some centres not stated)
## Result N
